tgt: Beta-secretase 1 (Homo sapiens)
assayExplanation: Inhibition of BACE1 (unknown origin) expressed in human APP751 transfected CHO-7W cells assessed as inhibition of amyloid-beta (1 to 40) peptide production at 1 uM after 24 hrs by Abeta40 human ELISA Kit
Assay type: cell-based
Recorded measurements of inhibition, one per entry
The reply should be a number in %, with the unit left off.

Please review the following examples before continuing.
[
  {
    "recordSmiles": "COc1ccc(C(=O)N[C@@H](Cc2ccccc2)[C@H](O)CNC2CC2)cc1NC/C=C(\\C)CC/C=C(\\C)CCC=C(C)C",
    "inhibition / %": 10
  },
  {
    "recordSmiles": "CC(C)=CCC/C(C)=C/CC/C(C)=C/CN1C(=O)COc2ccc(C(=O)O)cc21",
    "inhibition / %": 0
  },
  {
    "recordSmiles": "COc1ccc(C(=O)O)cc1NC/C=C(\\C)CC/C=C(\\C)CCC=C(C)C",
    "inhibition / %": 31
  },
  {
    "recordSmiles": "CCOC(=O)COc1ccc(C(=O)OC)cc1N(C/C=C(\\C)CC/C=C(\\C)CCC=C(C)C)CC(=O)OCC",
    "inhibition / %": 14
  }
]

From here, focus on the item given below.
Task: Read the entry `CCCOc1ccc(C(=O)OC)cc1NC/C=C(\C)CC/C=C(\C)CCC=C(C)C` and write its reported inhibition.
Result: 0

---

tgt: Beta-secretase 1 (Homo sapiens) (UniProt P56817)
Sequence (P56817 whole entry): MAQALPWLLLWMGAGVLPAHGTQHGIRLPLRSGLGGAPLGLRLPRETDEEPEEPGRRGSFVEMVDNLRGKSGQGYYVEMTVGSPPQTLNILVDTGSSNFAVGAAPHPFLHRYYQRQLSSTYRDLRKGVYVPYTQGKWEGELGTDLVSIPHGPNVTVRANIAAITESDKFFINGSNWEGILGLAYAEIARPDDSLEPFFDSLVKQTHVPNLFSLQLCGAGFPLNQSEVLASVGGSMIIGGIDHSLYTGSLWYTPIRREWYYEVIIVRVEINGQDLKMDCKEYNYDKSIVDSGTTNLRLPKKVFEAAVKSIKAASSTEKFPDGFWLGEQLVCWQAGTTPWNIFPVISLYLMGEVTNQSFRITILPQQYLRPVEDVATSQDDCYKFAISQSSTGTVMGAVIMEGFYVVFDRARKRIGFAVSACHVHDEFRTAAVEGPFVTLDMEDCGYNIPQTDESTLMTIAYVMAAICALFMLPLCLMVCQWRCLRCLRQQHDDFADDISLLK
assayExplanation: Inhibition of BACE1 (unknown origin) expressed in human APP751 transfected CHO-7W cells assessed as inhibition of amyloid-beta (1 to 40) peptide production at 10 uM after 24 hrs by Abeta40 human ELISA Kit
Format: cell-based
reportedEndpoint: inhibition (%)
The reply should be a number in %, with the unit left off.

Please review the following examples before continuing.
[
  {
    "recordSmiles": "COC(=O)c1ccc2c(c1)N(C/C=C(\\C)CC/C=C(\\C)CCC=C(C)C)C(=O)CO2",
    "readoutNumber": 29
  },
  {
    "recordSmiles": "CCCS(=O)(=O)Oc1ccc(C(=O)O)cc1NC/C=C(\\C)CC/C=C(\\C)CCC=C(C)C",
    "readoutNumber": 36
  },
  {
    "recordSmiles": "CC(C)=CCC/C(C)=C/CC/C(C)=C/CNc1cc(C(=O)O)ccc1O",
    "readoutNumber": 0
  }
]

Task: Read the entry `COc1ccccc1NC/C=C(\C)CC/C=C(\C)CCC=C(C)C` and write its reported inhibition.
Result: 0

Task: Read the entry `CCOC(=O)COc1ccc(C(=O)OC)cc1N(C/C=C(\C)CC/C=C(\C)CCC=C(C)C)CC(=O)OCC` and write its reported inhibition.
Result: 36

Task: Read the entry `CC(C)=CCC/C(C)=C/CC/C(C)=C/CN1C(=O)COc2ccc(C(=O)O)cc21` and write its reported inhibition.
Result: 0

Task: Read the entry `COC(=O)c1ccc(OC)c(NC/C=C(\C)CC/C=C(\C)CCC=C(C)C)c1` and write its reported inhibition.
Result: 29

Task: Read the entry `COc1ccc(C(=O)N[C@@H](Cc2ccccc2)[C@H](O)CNC2CC2)cc1NC/C=C(\C)CC/C=C(\C)CCC=C(C)C` and write its reported inhibition.
Result: 28

Task: Read the entry `CCCOc1ccc(C(=O)OC)cc1NC/C=C(\C)CC/C=C(\C)CCC=C(C)C` and write its reported inhibition.
Result: 0

Task: Read the entry `COC(=O)c1ccnc(NC/C=C(\C)CC/C=C(\C)CCC=C(C)C)c1` and write its reported inhibition.
Result: 0

---

Recorded measurements of inhibition, one per entry
tgt: Beta-secretase 1 (Homo sapiens) (UniProt P56817)
assayExplanation: Inhibition of recombinant human BACE1 using fluorogenic peptide 4 as substrate at 10 uM by FRET assay
The reply should be a number in %, with the unit left off.

Please review the following examples before continuing.
[
  {
    "recordSmiles": "COc1ccccc1NC/C=C(\\C)CC/C=C(\\C)CCC=C(C)C",
    "inhibition, %": 64
  },
  {
    "recordSmiles": "COC(=O)c1ccc(OC)c(NC/C=C(\\C)CC/C=C(\\C)CCC=C(C)C)c1",
    "inhibition, %": 68
  },
  {
    "recordSmiles": "CC(C)=CCC/C(C)=C/CC/C(C)=C/CNc1cc(C(=O)O)ccc1O",
    "inhibition, %": 36
  }
]

From here, focus on the item given below.
Task: Read the entry `CC(C)=CCC/C(C)=C/CC/C(C)=C/CNc1cccc(C(=O)O)c1` and write its reported inhibition.
Result: 25

---

Recorded measurements of inhibition, one per entry
tgt: Beta-secretase 1 (Homo sapiens) (UniProt P56817)
assayExplanation: Inhibition of recombinant human BACE1 using fluorogenic peptide 4 as substrate at 1 uM by FRET assay
The reply should be a number in %, with the unit left off.

[
  {
    "recordSmiles": "COc1ccc(C(=O)O)cc1NC/C=C(\\C)CC/C=C(\\C)CCC=C(C)C",
    "inhibition, %": 50
  },
  {
    "recordSmiles": "COC(=O)c1ccnc(NC/C=C(\\C)CC/C=C(\\C)CCC=C(C)C)c1",
    "inhibition, %": 100
  },
  {
    "recordSmiles": "CC(C)=CCC/C(C)=C/CC/C(C)=C/CN1C(=O)COc2ccc(C(=O)O)cc21",
    "inhibition, %": 100
  }
]

Task: Read the entry `CC(C)=CCC/C(C)=C/CC/C(C)=C/CNc1cc(C(=O)O)ccc1O` and write its reported inhibition.
Result: 100

Task: Read the entry `COC(=O)c1ccc(OC)c(NC/C=C(\C)CC/C=C(\C)CCC=C(C)C)c1` and write its reported inhibition.
Result: 100

---

Recorded measurements of inhibition, one per entry
tgt: Beta-secretase 1 (Homo sapiens) (UniProt P56817)
assayExplanation: Inhibition of recombinant human BACE1 using fluorogenic peptide 4 as substrate at 1 uM by FRET assay

Please review the following examples before continuing.
[
  {
    "recordSmiles": "CCOC(=O)COc1ccc(C(=O)OC)cc1N(C/C=C(\\C)CC/C=C(\\C)CCC=C(C)C)CC(=O)OCC",
    "result": "100%"
  },
  {
    "recordSmiles": "CC(=O)Oc1ccc(C(=O)O)cc1C/C=C(\\C)CC/C=C(\\C)CC/C=C(\\C)CCC=C(C)C",
    "result": "87%"
  },
  {
    "recordSmiles": "CCCS(=O)(=O)Oc1ccc(C(=O)O)cc1NC/C=C(\\C)CC/C=C(\\C)CCC=C(C)C",
    "result": "93%"
  },
  {
    "recordSmiles": "COc1ccccc1NC/C=C(\\C)CC/C=C(\\C)CCC=C(C)C",
    "result": "94%"
  },
  {
    "recordSmiles": "CC(C)=CCC/C(C)=C/CC/C(C)=C/CNc1cccc(C(=O)O)c1",
    "result": "89%"
  }
]

From here, focus on the item given below.
Task: Read the entry `CCCOc1ccc(C(=O)OC)cc1NC/C=C(\C)CC/C=C(\C)CCC=C(C)C` and write its reported inhibition.
Result: 88%
